The reported measurements were obtained from patent US9656988B2.

Form field: pIC50 (one value per entry).
tgt: BTK (Homo sapiens (Human), UniProt Q06187)
Sequence (Q06187 whole entry): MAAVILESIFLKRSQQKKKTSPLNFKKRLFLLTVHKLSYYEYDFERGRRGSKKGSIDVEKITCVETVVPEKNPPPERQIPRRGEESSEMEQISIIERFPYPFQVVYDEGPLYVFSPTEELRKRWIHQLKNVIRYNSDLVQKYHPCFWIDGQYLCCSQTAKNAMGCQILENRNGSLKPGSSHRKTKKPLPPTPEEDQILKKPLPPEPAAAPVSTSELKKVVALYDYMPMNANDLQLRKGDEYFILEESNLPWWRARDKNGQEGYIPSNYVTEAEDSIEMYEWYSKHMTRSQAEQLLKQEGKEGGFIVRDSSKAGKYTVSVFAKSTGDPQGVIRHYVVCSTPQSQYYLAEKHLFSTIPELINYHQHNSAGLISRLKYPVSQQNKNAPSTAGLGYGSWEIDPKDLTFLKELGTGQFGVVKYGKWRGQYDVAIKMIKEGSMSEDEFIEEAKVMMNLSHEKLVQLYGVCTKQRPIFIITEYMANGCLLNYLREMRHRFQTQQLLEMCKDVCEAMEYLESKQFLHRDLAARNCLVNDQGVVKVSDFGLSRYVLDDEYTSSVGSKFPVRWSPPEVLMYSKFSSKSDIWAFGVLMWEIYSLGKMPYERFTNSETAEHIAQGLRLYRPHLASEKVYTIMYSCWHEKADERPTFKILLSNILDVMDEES
test: Btk in vitro inhibitory activity (one of Method A TR-FRET, Method B electrophoretic mobility shift, Method C radiometric filter binding)
Format: biochemical
run parameters: determined using one of the methods of Example 355a, 355b and 355c; read-out: BTK IC50
pIC50: −log10 of the molar value.
experimental endpoint: pIC50

INSERT INTO results (chemical_string, reported) VALUES
  ('CCCOc1ccc(C(=O)N[C@@H]2CCCN(c3nnc(C(N)=O)c(Nc4ccc(C(=O)N5CCOCC5)cc4)n3)C2)cc1', '> 8.00'),
  ('NC(=O)c1ncc(N2CCC[C@@H](NC(=O)c3cncc(Cl)c3)C2)nc1Nc1ccc(C2CCN(C3CC3)CC2)cc1', '> 8.00'),
  ('CS(=O)(=O)N[C@@H]1CCCN(c2cnc(C(N)=O)c(Nc3ccc(C4CCN(C5CCCC5)CC4)cc3)n2)C1', '7.00 to 8.00'),
  ('NC(=O)c1nnc(N2CCC[C@@H](NC(=O)c3ccc(Oc4ccccc4)cc3)C2)nc1Nc1ccc(C(=O)N2CCOCC2)cc1', '7.00 to 8.00'),
  ('CCOc1ccc(C(=O)N[C@@H]2CCCN(c3nnc(C(N)=O)c(Nc4ccc(C(=N)N(C)C)cc4)n3)C2)cc1', '7.00 to 8.00'),
  ('CN(C)C/C=C/C(=O)N1CCC[C@@H](Nc2nnc(C(N)=O)c(Nc3ccc(C(=O)N4CCOCC4)cc3)n2)C1', '> 8.00'),
  ('CN(C)C(=O)N[C@@H]1CCCN(c2cnc(C(N)=O)c(Nc3ccc(C(=O)N(C)C)cc3)n2)C1', '> 8.00'),
  ('CCC(=O)N1CCC(C)(c2ccc(Nc3nc(N4CCC[C@@H](N5CCN(C)C5=O)C4)cnc3C(N)=O)cc2)CC1', '> 8.00'),
  ('Cc1cc(C(=O)N[C@@H]2CCCN(c3nnc(C(N)=O)c(Nc4ccc(C(=O)N5CCOCC5)cc4)n3)C2)no1', '7.00 to 8.00'),
  ('CN(C)C(=O)N[C@@H]1CCCN(c2cnc(C(N)=O)c(Nc3ccc(F)cc3)n2)C1', '7.00 to 8.00'),
  ('NC(=O)c1ncc(N2CCC[C@@H](NC(=O)c3ccc(-c4ccccc4)cc3)C2)nc1Nc1ccc(C2CCN(C3CC3)CC2)cc1', '7.00 to 8.00'),
  ('COc1ccc(C(=O)N[C@@H]2CCCN(c3cnc(C(N)=O)c(Nc4ccc(C5CCN(C6CC6)CC5)cc4)n3)C2)cc1', '> 8.00'),
  ('CN(C)C(=O)N[C@@H]1CCCN(c2cnc(C(N)=O)c(Nc3cnn(C4CCCC4)c3)n2)C1', '7.00 to 8.00'),
  ('CN(C)C/C=C/C(=O)N1CCC[C@@H](Nc2nnc(C(N)=O)c(Nc3ccc(S(C)(=O)=O)cc3)n2)C1', '> 8.00');

* * *

tgt: BTK (Homo sapiens (Human))
test: Btk in vitro inhibitory activity (one of Method A TR-FRET, Method B electrophoretic mobility shift, Method C radiometric filter binding)
Format: biochemical
run parameters: Btk (IC50)
pIC50: −log10 of the molar value.
Form field: pIC50 (one value per entry).
experimental endpoint: pIC50

INSERT INTO assay_data (chemical_string, reported) VALUES
  ('NC(=O)c1nnc(N2CCC[C@@H](NC(=O)C(=O)N3CCCCC3)C2)nc1Nc1ccc(C(=O)N2CCOCC2)cc1', '6.00 to 7.00'),
  ('COc1ccc(C(=O)N[C@@H]2CCCN(c3cnc(C(N)=O)c(Nc4ccc(C5CCN(C(=O)N(C)C)CC5)cc4)n3)C2)cc1', '7.00 to 8.00'),
  ('C[C@@H]1[C@H](N2CCN(C)C2=O)CCCN1c1cnc(C(N)=O)c(Nc2ccc(C3(C)CCNCC3)cc2)n1', '> 8.00'),
  ('COc1cc(Nc2nc(N3CCC[C@@H](NC(=O)N(C)C)C3)cnc2C(N)=O)ccc1Cl', '6.00 to 7.00'),
  ('NC(=O)c1nnc(N2CCC[C@@H](NC(=O)c3ccc4ncccc4c3)C2)nc1Nc1ccc(C(=O)N2CCOCC2)cc1', '7.00 to 8.00'),
  ('CN(C)C(=O)N(C)[C@@H]1CCCN(c2cnc(C(N)=O)c(Nc3ccc(C4CCN(C5CCCC5)CC4)cc3)n2)C1', '7.00 to 8.00'),
  ('COc1ccc(C(=O)N[C@@H]2CCCN(c3cnc(C(N)=O)c(Nc4ccc(N5CCC(C(=O)N(C)C)CC5)cc4)n3)C2)cc1', '> 8.00'),
  ('C[C@@H]1[C@H](N)CCCN1c1cnc(C(N)=O)c(Nc2ccc(C3CCN(C4CCCC4)CC3)cc2)n1', '7.00 to 8.00'),
  ('CC(C)(C)c1ccc(NC(=O)N[C@@H]2CCCN(c3nnc(C(N)=O)c(Nc4ccc(C(=O)N5CCOCC5)cc4)n3)C2)cc1', '7.00 to 8.00'),
  ('CN1CCN(c2ccc(Nc3nc(N4CCC[C@@H](NC(=O)N5CCCCC5)C4)cnc3C(N)=O)cc2)CC1', '7.00 to 8.00'),
  ('Cc1cc(Nc2nc(N3CCC[C@@H](NC(=O)N(C)C)C3)cnc2C(N)=O)sn1', '7.00 to 8.00'),
  ('C[C@@H]1[C@H](NC(=O)N(C)C)CCCN1c1cnc(C(N)=O)c(Nc2ccc(C3CCN(C4CC4)CC3)cc2)n1', '> 8.00');

* * *

Form field: IC50 (one value per entry).
tgt: BTK (Homo sapiens (Human))
test: Btk in vitro inhibitory activity (one of Method A TR-FRET, Method B electrophoretic mobility shift, Method C radiometric filter binding)
Assay type: biochemical
run parameters: determined using one of the methods of Example 355a, 355b and 355c; read-out: BTK IC50
experimental endpoint: IC50

INSERT INTO measurements (compound, reported) VALUES
  ('COc1ccc(C(=O)N[C@@H]2CCCN(c3nnc(C(N)=O)c(Nc4ccc(C5CCNCC5)cc4)n3)C2)cc1 [Example 333]', '< 10 nM'),
  ('COc1ccc(C(=O)N[C@@H]2CCCN(c3nnc(C(N)=O)c(Nc4ccc(C5CCN(C6CCCC6)CC5)cc4)n3)C2)cc1 [Example 334]', '< 10 nM'),
  ('CN(C)CCOc1ccc(Nc2nc(N3CCC[C@@H](NC(=O)N(C)C)C3)cnc2C(N)=O)cc1 [Example 191]', '10 to 100 nM'),
  ('CN(C)C(=O)N[C@@H]1CCCN(c2cnc(C(N)=O)c(Nc3ccc(C(=O)N4CCCC4)cc3)n2)C1 [Example 195]', '< 10 nM'),
  ('CN(C)C(=O)N1CCC(c2ccc(Nc3nc(N4CCC[C@@H](N(C)C(=O)N(C)C)C4)cnc3C(N)=O)cc2)CC1 [Example 226]', '10 to 100 nM'),
  ('CN(C/C=C/C(=O)N1CCC[C@@H](Nc2nnc(C(N)=O)c(Nc3ccc(C(=O)N4CCOCC4)cc3)n2)C1)C1CC1 [Example 67]', '< 10 nM'),
  ('COc1ccc(C(=O)N[C@@H]2CCCN(c3cnc(C(N)=O)c(Nc4ccc(OCC[N+](C)(C)[O-])cc4)n3)C2)cc1 [Example 116]', '10 to 100 nM'),
  ('CCC(=O)N1CCC(C)(c2ccc(Nc3nc(N4CCC[C@@H](N5CCN(C)C5=O)[C@H]4C)cnc3C(N)=O)cc2)CC1 [Example 255]', '< 10 nM'),
  ('NC(=O)c1nnc(N2CCC[C@@H](NS(=O)(=O)c3ccccc3)C2)nc1Nc1ccc(C(=O)N2CCOCC2)cc1 [Example 41]', '< 10 nM'),
  ('CN(C(=O)N[C@@H]1CCCN(c2cnc(C(N)=O)c(Nc3ccc(C4(C#N)CC4)cc3)n2)C1)c1cc(Cl)cc(C(F)(F)F)c1 [Example 323]', '100 to 1000 nM'),
  ('NC(=O)c1nnc(N2CCC[C@@H](NC(=O)c3nccs3)C2)nc1Nc1ccc(C(=O)N2CCOCC2)cc1 [Example 16]', '< 10 nM'),
  ('NC(=O)c1nnc(N2CCC[C@@H](N3CCCC3=O)C2)nc1Nc1ccc(C(=O)N2CCOCC2)cc1 [Example 44]', '10 to 100 nM'),
  ('CCC(=O)N1CCC(c2ccc(Nc3nc(N4CCC[C@@H](NC(=O)N5CCCCC5)C4)cnc3C(N)=O)cc2)CC1 [Example 149]', '10 to 100 nM'),
  ('NC(=O)c1nnc(N2CCC[C@@H](NC(=O)N3CCC(N4CCCCC4)CC3)C2)nc1Nc1ccc(C(=O)N2CCOCC2)cc1 [Example 37]', '10 to 100 nM'),
  ('CC(C)(C)c1ccc(C(=O)N[C@@H]2CCCN(c3nnc(C(N)=O)c(Nc4ccc(S(C)(=O)=O)cc4)n3)C2)cc1 [Example 55]', '< 10 nM'),
  ('CN(C)C(=O)N[C@@H]1CCCN(c2cnc(C(N)=O)c(Nc3ccc(C4CCNCC4)cc3Cl)n2)C1 [Example 213]', '10 to 100 nM'),
  ('CC#CC(=O)N[C@@H]1CCCN(c2nnc(C(N)=O)c(Nc3ccc(C(=O)N4CCOCC4)cc3)n2)C1 [Example 23]', '10 to 100 nM'),
  ('COc1ccc(C(=O)N[C@@H]2CCCN(c3cnc(C(N)=O)c(Nc4ccc(C5CCN(C(C)C)CC5)cc4)n3)C2)cc1 [Example 134]', '< 10 nM'),
  ('CC(C)(C)OC(=O)N1CC[C@@H](Nc2nnc(C(N)=O)c(Nc3ccc(C(=O)N4CCOCC4)cc3)n2)C1 [Example 68]', '100 to 1000 nM'),
  ('COc1ccc(C(=O)N[C@@H]2CCCN(c3cnc(C(N)=O)c(Nc4ccc(N5CCCCC5)cc4)n3)C2)cc1 [Example 164]', '< 10 nM'),
  ('CN1CCN([C@@H]2CCCN(c3cnc(C(N)=O)c(Nc4ccc(C5(C(F)(F)F)CC5)cc4)n3)C2)C1=O [Example 262]', '10 to 100 nM'),
  ('COc1ccc(C(=O)N[C@@H]2CCCN(c3cnc(C(N)=O)c(Nc4ccc(C5CCN(S(C)(=O)=O)CC5)cc4)n3)C2)cc1 [Example 143]', '10 to 100 nM'),
  ('NC(=O)c1ncc(N2CCC[C@@H](NC(=O)c3ccc4ccccc4c3)C2)nc1Nc1ccc(C2CCN(C3CC3)CC2)cc1 [Example 317]', '10 to 100 nM'),
  ('CN(C)C(=O)N[C@@H]1CCCN(c2cnc(C(N)=O)c(Nc3ccc([N+](=O)[O-])cc3)n2)C1 [Example 192]', '10 to 100 nM'),
  ('NC(=O)c1ncc(N2CCC[C@@H](NC=O)C2)nc1Nc1ccc(C2CCN(C3CCCC3)CC2)cc1 [Example 295]', '< 10 nM'),
  ('CN(C)C(=O)N[C@@H]1CCCN(c2cnc(C(N)=O)c(Nc3ccc(C4(C#N)CCCC4)cc3)n2)C1 [Example 203]', '< 10 nM'),
  ('NC(=O)c1ncc(N2CCC[C@@H](NC(=O)C3CCCC3)C2)nc1Nc1ccc(C2CCN(C3CC3)CC2)cc1 [Example 310]', '10 to 100 nM');
